meta.source: patent US11447466B2

# TGT: human TLR7 (Homo sapiens, UniProt Q9NYK1)
# Sequence (Q9NYK1 27-1049): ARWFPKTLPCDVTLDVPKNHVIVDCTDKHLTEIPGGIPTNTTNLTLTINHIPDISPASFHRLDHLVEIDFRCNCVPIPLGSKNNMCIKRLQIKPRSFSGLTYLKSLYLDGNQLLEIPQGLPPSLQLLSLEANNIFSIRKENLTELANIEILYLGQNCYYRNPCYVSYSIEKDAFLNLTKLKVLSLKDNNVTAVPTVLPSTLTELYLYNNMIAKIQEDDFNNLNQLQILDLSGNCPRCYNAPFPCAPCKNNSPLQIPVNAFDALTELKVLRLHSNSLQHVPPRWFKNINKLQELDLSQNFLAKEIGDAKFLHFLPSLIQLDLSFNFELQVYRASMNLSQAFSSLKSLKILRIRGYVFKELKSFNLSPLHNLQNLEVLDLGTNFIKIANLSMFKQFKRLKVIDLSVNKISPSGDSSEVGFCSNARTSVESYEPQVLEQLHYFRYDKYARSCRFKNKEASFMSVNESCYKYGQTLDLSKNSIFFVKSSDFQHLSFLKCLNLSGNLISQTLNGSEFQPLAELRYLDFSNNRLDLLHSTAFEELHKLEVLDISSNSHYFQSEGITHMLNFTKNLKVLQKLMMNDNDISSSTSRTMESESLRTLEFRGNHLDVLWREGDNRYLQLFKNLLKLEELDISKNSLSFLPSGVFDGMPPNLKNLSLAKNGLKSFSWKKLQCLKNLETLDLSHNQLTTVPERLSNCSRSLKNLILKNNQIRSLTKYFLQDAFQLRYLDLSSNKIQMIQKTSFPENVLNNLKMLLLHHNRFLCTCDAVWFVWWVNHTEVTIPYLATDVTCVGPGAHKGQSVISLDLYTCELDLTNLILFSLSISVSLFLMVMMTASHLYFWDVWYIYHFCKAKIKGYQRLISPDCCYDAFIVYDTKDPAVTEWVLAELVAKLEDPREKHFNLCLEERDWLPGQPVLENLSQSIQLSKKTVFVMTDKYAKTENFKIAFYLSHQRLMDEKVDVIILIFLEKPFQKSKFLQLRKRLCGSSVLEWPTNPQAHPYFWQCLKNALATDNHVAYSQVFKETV
# METHOD_NOTES: TLR7 inhibition reporter assay (HEK-Blue SEAP reporter, gardiquimod stimulation)
# CONDITIONS: HEK-Blue cells overexpressing human TLR7, SEAP reporter, gardiquimod 7.5 μM, 22 hour incubation
Hi! Just check whether IC50 is below 10 nM. Below gives Yes, equal or above gives No.

Cc1cc(-c2[nH]c3ccc(C4CCN(C5CCOCC5)CC4)cc3c2C(C)C)cn(Cc2ccccc2)c1=O: No
Cc1cc(-c2[nH]c3ccc(C4CCN(C(=O)[C@@H]5C[C@@H](O)CN5)CC4)cc3c2C(C)C)cn(C)c1=O [Example 293]: No
Cc1c(-c2[nH]c3ccc(C4CCN(CCC(F)(F)F)CC4)cc3c2C(C)C)cn(C)c(=O)c1Cl: No
Cc1cc(-c2[nH]c3ccc(C4CCN(C(=O)[C@H]5C[C@H](O)CN5)CC4)cc3c2C(C)C)cn(C)c1=O [Example 288]: No
COc1c(C)c(-c2[nH]c3ccc(C4CCNCC4)cc3c2C(C)C)cn(C)c1=O: No
CCCCN1CCC(c2ccc3[nH]c(-c4cn(C)c(=O)c(Cl)c4C)c(C(C)C)c3c2)CC1: Yes

Shift focus to the following entry.
### Prompt Determine if Cc1cc(-c2[nH]c3ccc(C4CCN(CC5CC5(F)F)CC4)cc3c2C(C)C)cn(C)c1=O (stereo not shown) shows IC50 strictly lower than 10 nM.
### Response Yes
